Experiment: self-splicing fitness, log relative to wild type (ln ratio); higher = more splicing; Tetrahymena group I intron in knt gene, E. coli kanamycin selection, DiMSum; sequences stand for … in CUCUCU…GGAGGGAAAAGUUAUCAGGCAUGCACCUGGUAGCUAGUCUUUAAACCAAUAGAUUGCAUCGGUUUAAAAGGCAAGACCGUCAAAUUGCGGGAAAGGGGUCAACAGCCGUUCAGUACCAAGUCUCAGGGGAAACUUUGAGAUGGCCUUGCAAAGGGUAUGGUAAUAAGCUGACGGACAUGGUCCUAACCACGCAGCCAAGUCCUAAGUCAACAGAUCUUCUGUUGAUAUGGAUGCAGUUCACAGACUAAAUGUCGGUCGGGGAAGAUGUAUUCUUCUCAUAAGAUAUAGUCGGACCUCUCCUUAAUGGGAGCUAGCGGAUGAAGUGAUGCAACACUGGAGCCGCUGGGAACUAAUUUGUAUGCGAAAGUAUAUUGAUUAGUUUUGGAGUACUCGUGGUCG;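 note: selection with 25 µg/mL kanamycin versus none on LB agar overnight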
Settings: 30 °C
This listing pairs sequences with measured self-splicing fitness (ln).

{"monomer sequence": "UCCCAGCAAUAUUACGACUC", "self-splicing fitness (ln)": -3.89}
{"monomer sequence": "CUCGAGCAAUAUUACGGAGA", "self-splicing fitness (ln)": -2.57}
{"monomer sequence": "AGCCAGCAAUAUUACGCCUG", "self-splicing fitness (ln)": -2.37}
{"monomer sequence": "CCAUAGCAAUAUUACGGACA", "self-splicing fitness (ln)": -3.36}
{"monomer sequence": "GUCCAGCAAUAUUACGCGAC", "self-splicing fitness (ln)": -3.04}
{"monomer sequence": "CAGAAGCAAUAUUACGAGGU", "self-splicing fitness (ln)": -4.11}
{"monomer sequence": "GUCAAGCAAUAUUACGCAGG", "self-splicing fitness (ln)": -4.19}
{"monomer sequence": "GAUCAGCAAUAUUACGAGGG", "self-splicing fitness (ln)": -1.99}
{"monomer sequence": "UAAUAGCAAUAUUACGACCG", "self-splicing fitness (ln)": -0.0649}
{"monomer sequence": "AGAGAGCAAUAUUACGCAUA", "self-splicing fitness (ln)": -3.84}
{"monomer sequence": "CCAAAGCAAUAUUACGUAGC", "self-splicing fitness (ln)": -3.81}
{"monomer sequence": "CUGCAGCAAUAUUACGAUAU", "self-splicing fitness (ln)": -3.64}
{"monomer sequence": "CAUAAGCAAUAUUACGACCU", "self-splicing fitness (ln)": -2.63}
{"monomer sequence": "AACCAGCAAUAUUACGGCAU", "self-splicing fitness (ln)": 0.127}
{"monomer sequence": "CGAGAGCAAUAUUACGCGCU", "self-splicing fitness (ln)": -2.04}
{"monomer sequence": "CGUAAGCAAUAUUACGAGUG", "self-splicing fitness (ln)": -2.51}
{"monomer sequence": "AUUGAGCAAUAUUACGACUU", "self-splicing fitness (ln)": -1.5}
